- study_target: 14-3-3γ (Homo sapiens, UniProt P61981)
- Construct: made in house; host or cells: E. coli NiCo21 (DE3)
- Sequence (P61981 whole entry): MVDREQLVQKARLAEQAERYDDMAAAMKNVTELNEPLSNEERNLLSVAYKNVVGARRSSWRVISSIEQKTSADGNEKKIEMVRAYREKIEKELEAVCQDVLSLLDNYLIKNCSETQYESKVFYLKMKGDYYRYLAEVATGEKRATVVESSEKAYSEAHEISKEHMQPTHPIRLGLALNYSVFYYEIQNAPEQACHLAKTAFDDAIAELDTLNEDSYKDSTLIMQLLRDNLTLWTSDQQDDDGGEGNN
- experiment: Isothermal titration calorimetry (ITC) of 14-3-3 binding to peptide
- condition_details: Table S5; ITC Kd / Kd of peptide 1; second unlabelled line (replicate 2)
Where a SMILES comes first, the peptide text is derived from it. [ ]: non-standard residue; d: D form. ξ: configuration not given here. Phe(4-NO2) = N[C@@H](Cc1ccc([N+](=O)[O-])cc1)C(=O)O; ξAla(4-thiazolyl) = NC(Cc1cscn1)C(=O)O; pS = N[C@@H](COP(=O)(O)O)C(=O)O; β3hS = N[C@@H](CO)CC(=O)O; Nva = CCC[C@H](N)C(=O)O; βAla = NCCC(=O)O
# Fold change to 1 listing for each entry below
Number, no unit, nothing else.

compound	reported_value
CCC[C@H](NC(=O)[C@H](N)CCCCN)C(=O)N[C@@H](Cc1ccc([N+](=O)[O-])cc1)C(=O)NC(Cc1cscn1)C(=O)N[C@@H](COP(=O)(O)O)C(=O)N[C@@H](Cc1ccc(O)cc1)C(=O)N[C@@H](CO)CC(=O)NCCC(=O)N[C@@H](Cc1ccc([N+](=O)[O-])cc1)C(=O)N[C@@H](CCCCN)C(N)=O (stereo partly drawn) [4a] (H-[dK][Nva][Phe(4-NO2)][ξAla(4-thiazolyl)][pS]Y[β3hS][βAla][Phe(4-NO2)]K-NH2; N-terminus and C-terminus assumed)	1.3
CCC[C@H](NC(=O)[C@H](N)CCCCN)C(=O)N[C@@H](Cc1ccc([N+](=O)[O-])cc1)C(=O)NC(Cc1cscn1)C(=O)N[C@@H](COP(=O)(O)O)C(=O)N[C@@H](C)C(=O)N[C@@H](CO)CC(=O)NCCC(=O)N[C@@H](Cc1ccc([N+](=O)[O-])cc1)C(=O)N[C@@H](CCCCN)C(N)=O (stereo partly drawn) [4c] (H-[dK][Nva][Phe(4-NO2)][ξAla(4-thiazolyl)][pS]A[β3hS][βAla][Phe(4-NO2)]K-NH2; N-terminus and C-terminus assumed)	18.9
CCC[C@H](NC(=O)[C@H](N)CCCCN)C(=O)N[C@@H](Cc1ccc([N+](=O)[O-])cc1)C(=O)N[C@@H](C)C(=O)N[C@@H](COP(=O)(O)O)C(=O)N[C@@H](Cc1ccc([N+](=O)[O-])cc1)C(=O)N[C@@H](CO)CC(=O)NCCC(=O)N[C@@H](Cc1ccc([N+](=O)[O-])cc1)C(=O)N[C@@H](CCCCN)C(N)=O [3a] (H-[dK][Nva][Phe(4-NO2)]A[pS][Phe(4-NO2)][β3hS][βAla][Phe(4-NO2)]K-NH2; N-terminus and C-terminus assumed)	1.5

Switching to the query record.
Enquiry: Request the reported Fold change to 1 associated with CCC[C@H](NC(=O)[C@H](N)CCCCN)C(=O)N[C@@H](Cc1ccc([N+](=O)[O-])cc1)C(=O)NC(Cc1cscn1)C(=O)N[C@@H](COP(=O)(O)O)C(=O)N[C@@H](Cc1ccccc1)C(=O)N[C@@H](CO)CC(=O)NCCC(=O)N[C@@H](Cc1ccc([N+](=O)[O-])cc1)C(=O)N[C@@H](CCCCN)C(N)=O (stereo partly drawn) [4b] (H-[dK][Nva][Phe(4-NO2)][ξAla(4-thiazolyl)][pS]F[β3hS][βAla][Phe(4-NO2)]K-NH2; N-terminus and C-terminus assumed)
Return: 0.8

Origin of measurements: paper PMC9667936
